The entries below come with measured MIC values attached.
# Tested on: Haemophilus influenzae ATCC 49247
# procedureDetails: MIC, broth microdilution (CLSI) versus planktonic bacteria
# Format: cell-based
# conditionDescription: ATCC49247; Haemophilus influenzae ATCC 49247; 16-20 h; mode of three independent experiments; read-out: MIC, Hi ATCC 49247

Study these solved cases before continuing.
- molecule: "N#Cc1cccc(-c2cccc(CN[C@H]3CC[C@H]4[C@@H](C3)OC(=O)N4c3ccc4c(n3)NC(=O)CO4)c2O)n1"
  result: "1 to 10 µg/mL"
- molecule: "N#Cc1cnc2ccc(=O)n(CCN[C@H]3CC[C@H]4[C@@H](C3)OC(=O)N4c3ccc4c(n3)NC(=O)CO4)c2c1"
  result: "< 1 µg/mL"
- molecule: "N#Cc1ccc2ccc(=O)n(CCN[C@H]3CC[C@H]4[C@@H](C3)OC(=O)N4c3ccc4c(n3)NC(=O)CO4)c2n1"
  result: "1 to 10 µg/mL"
- molecule: "N#Cc1ccc2ncc(=O)n(CCN[C@@H]3CC[C@@H]4[C@@H](C3)OC(=O)N4c3ccc4c(n3)NC(=O)CO4)c2c1"
  result: "< 1 µg/mL"
- molecule: "COc1ccc2ncc(=O)n(CCN[C@H]3CCC4C(C3)OC(=O)N4c3ccc4c(n3)NC(=O)CO4)c2n1 (stereo in doubt)"
  result: "< 1 µg/mL"

As a next step, examine the molecule that follows.
Give MIC (Haemophilus influenzae ATCC 49247) of the following molecule: NS(=O)(=O)c1ccc(Oc2ccc3ccc(=O)n(CCN[C@@H]4CC[C@@H]5[C@@H](C4)OC(=O)N5c4ccc5c(n4)NC(=O)CO5)c3n2)cc1
< 1 µg/mL
